# Test system: MCF7 breast
# Measurement notes: NCI-60 one-dose screen, 48 h (100 = growth as untreated, 0 = no growth, -100 = all killed)
# Measurement parameters: 10 µM unless noted
About 83,000 compounds went through this panel and 20% of them were active in at least one assay; those are over-represented in the sample as a whole. Calls of active or inactive are those of the source. How the source made its calls: active means growth percent below 10; inactive means the rest.
Property measured: growth

* COc1ccc(CNCCCN2C(=O)c3ccc4c5c(ccc(c35)C2=O)C(=O)N(CCCNCCCCNCCCN)C4=O)c(OC)c1OC | -19.7% (active)
* CO[C@H]1NC(=O)N(S(=O)(=O)c2ccc(Cl)cc2)[C@@H]1OC | 99.4% (inactive)
* COc1cc(-c2nn(-c3cccc(NC(=O)Nc4ccc(Cl)c(C(F)(F)F)c4)c3)cc2-c2ccncc2)ccc1Cl | 0.143% (active)
* O=C(Nc1cccc(-n2cc(-c3ccncc3)c(-c3ccc(Cl)c(O)c3)n2)c1)Nc1ccc(Cl)c(Cl)c1 | 5.74% (active)
* COc1ccccc1CNCCCN1C(=O)c2ccc3c4c(ccc(c24)C1=O)C(=O)N(CCCNCCCCNCCCN)C3=O | -38.4% (active)
* COc1ccc(/C=C2\N=C(c3ccccc3)N(C(=O)c3ccccc3O)NC2=O)cc1 | 92.8% (inactive)
* CC(=O)Oc1csc(N(C(C)=O)c2cccc(C(F)(F)F)c2)n1 | 90.8% (inactive)
* CC1=C(C#N)C(=O)NC(C)C1 (stereo not given) | 101% (inactive)
* O=C1Nc2ccc3c(c2/C1=C\c1cc2c(cc1Br)OCO2)OCO3 | 4.51% (active)
* Brc1cccc(-c2cc(-c3ccc4nccnc4c3)[nH]n2)c1 | 14.1% [25 µM] (inactive)

Origin of the recorded values: PubChem BioAssay (NCI)
